- system tested: gEgI mutant (R320D): HSV2 gEgI mutant heterodimer comprising gE and gI ectodomains with mutation R320D in gE (HSV2, UniProt P89475 21-416; P06764 21-256)
- test protocol: ELISA, supernatant
value kind: binding result

[[record]]
binder = "mAb clone 35, 36 (antibody, V domains shown) VH: QVQLKESGPGLVAPSQSLSITCTVSGFSLTSYGVHWVRQPPGKGLEWLGVIWAGGSTNYNSALMSRLSISKDNSKSQVFLKMNSLQTDDTAMYYCATDGYKFFYYAMDYWGQGTSVTVSS VL: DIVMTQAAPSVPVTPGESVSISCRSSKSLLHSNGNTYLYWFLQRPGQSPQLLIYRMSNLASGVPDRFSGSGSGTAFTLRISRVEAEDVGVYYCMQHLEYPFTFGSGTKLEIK"
result_value = "binds"

[[record]]
binder = "mAb clone 14 (antibody, V domains shown, also called GEGI/14IIa) VH: QVQLQQSGAELMKPGASVKISCKATGYTFSSYWIEWVKQRPGHGLEWIGEILPGSGSTNYNEKFKGKATFTADTSSNTAYMQLSSLTSEDSAVYYCASGSAGNYYGSSYEAMDYWGQGTSVTVSS VL: DIVLTQSPASLAVSLGQRATISCRASKSVSTSGYSYMHWYQQKPGQPPKLLIYLASNLESGVPARFSGSGSGTDFTLNIHPVEEEDAATYYCQHSRELPLTFGAGTKLELK"
result_value = "binds"

[[record]]
binder = "mAb clone 37 (antibody, V domains shown) VH: EVQLQQSGPELVKPGASVKISCKASGYTFTDYNMHWVKQSHGKSLEWIGYIYPYNGGTGYNQKFKTKATLTVDNSSSTAYMELRSLTSEDSAVYYCAIPGYYYAMDYWGQGTSVTVSS VL: DIVLTQSPASLAVSLGQRATISCRASKSVSTSGYSYMHWYQQKPGQPPKLLIYLASNLESGVPARFSGSGSGTDFTLNIHPVEEEDASTYYCHHSRELPRTFGGGTKLEIK"
result_value = "binds"

